# assayExplanation: Study 2: plasma HMB and urinary HMB excretion over 24 h
# Assay type: in vivo, human
# reportedConditions: both sexes, human, plasma, oral, 0.8 g, Study 2
assayReadout: half-life (h)
Give the value in h but do not write h after it.

What does the data say about its half-life? Entry: CC(C)(O)CC(=O)O [HMB-Acid Gel Swallow, 3-hydroxy-3-methylbutyric acid] 2.5

* * *

# assayExplanation: Study 1: plasma HMB after a single dose, sampled to 180 min
# Type: in vivo, human
assayReadout: time of peak plasma HMB (min)
Report only the number, with the unit min understood.

# input molecule: CC(C)(O)CC(=O)[O-].CC(C)(O)CC(=O)[O-].[Ca+2] [CaHMB, calcium β-hydroxy-β-methylbutryate, reference compound] ; wanted: its time of peak plasma HMB 122
